Target: T1, Recombinant human CD4 (R&D Systems, Cat. 10327-CD) (human, UniProt P01730 26-390, limits assumed)
T1 construct: Bought protein; also called huCD4
Test: BLI (Octet Red384), purified antibody on anti-mouse Fc sensors, human CD4 100/50/25 nM, global 1:1 fit;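 further: antibodies loaded at 10 µg/mL, curves fitted across association and dissociation phases, with an unrelated mouse-derived antibody serving as internal reference control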

| binder | Response |
| --- | --- |
| 75110_06K03A (antibody, V domains shown, Tested as antibody purified from AlivaMab Mouse Kappa hybridoma (human V regions, kappa light chain, mouse Fc captured by anti-mouse Fc sensors)) VH: QVQLQESGPGLVKPSETLSLTCTVSGGSISTYYWSWIRQPAGKGLEWIGRINTSGSTTYNPSLKSRVTMSVDTSKNQFSLKLSSVTAADTAVYYCARELERYYYYGMDVWGQGTTVTVSS VL: DIQMTQSPSSLSASVGDRVTITCQASQDISNYLNWYQQKPGKAPKLLIYYASILETGVPSRFSGSGSGTDFTFTISSLQPEDIATYYCQQYDSLPLTFGGGTKVEIK | 0.11 |
| 75110_05K11A (antibody, V domains shown, Tested as antibody purified from AlivaMab Mouse Kappa hybridoma (human V regions, kappa light chain, mouse Fc captured by anti-mouse Fc sensors)) VH: EVQLVESGGGLVQPGGSLRLSCAASGFTFSSYDMHWVRQPTGKGLEWVSTIGTAGDTYYPASVKGRFTISRENAKNSLYLQMNSLRAGDTAVYYCARGGFYYYGMDVWGQGTTVTVSS VL: EIVLTQSPGTLSLSPGERVTLSCRASQSVSNTYLAWYQQKPGQAPRLLIYGASSRATGIPDRFSGSGSGTDFTLTISRLEPEDFVVYYCQQHGSSPFTFGPGTKVDIK | 0.04 |
| 75110_10K21A (antibody, V domains shown, Tested as antibody purified from AlivaMab Mouse Kappa hybridoma (human V regions, kappa light chain, mouse Fc captured by anti-mouse Fc sensors)) VH: EVQLVESGGGLVQPGGSLRLSCAASGFTFSSYWMTWVRQAPGKGLEWVANIKQDGSEKYYVDSVKGRFTISRDNAKNSLYLQMNSLRAEDTAVYYCVRDRYDALDIWGQGTMVTVSS VL: AIQMTQSPSSLSASVGDRVTITCRASQGIRNDLNWYQQKPGKAPKLLIYAASSLQSGVPSRFSGSGSGTDFTLTISSLQAEDFATYYCLKDYNYPYTFGQGTKLEIK | 0.2 |
| 75110_12C19A (antibody, V domains shown, Tested as antibody purified from AlivaMab Mouse Kappa hybridoma (human V regions, kappa light chain, mouse Fc captured by anti-mouse Fc sensors)) VH: EVQLVESGGGLVQPGGSLRLSCAASGFTFSSYWMSWVRQAPGKGLEWVANIKEDGSDKYYVDSVKGRFTISRDNAKNSLYLQMNSLRAEDTAVHYCVREGGQWLALDYWGQGTLVTVSS VL: DIQMTQSPSSVSGSVGDRVTITCRASQGISSWLAWYQQKPGKAPKLLIYGASSLQSGVPSRFSGSGSGTDFTLTISSLQPEDFVTYYCQQANSFPWTFGQGTKVEIK | 0.08 |
| 75110_14N19A (antibody, V domains shown, Tested as antibody purified from AlivaMab Mouse Kappa hybridoma (human V regions, kappa light chain, mouse Fc captured by anti-mouse Fc sensors)) VH: QVQLQESGPGLVKPSETLSLTCTVSGGSISRYYWSWIRQPAGKGLEWIGRICTSENPNYNPALKSRVTMSVDTSKNQFSLKLSSVTAADTAVYYCARELERLNYYGMDVWGQGTTVTVSS VL: DIQMTQFPSSLSASVGDRVTITCQASQDISNYLNWYQQKPGKAPKLLIYDASNLESGVPSRFSGRGSGTDFTFTISSLQPEDFATFYCQQYDTLPITFGQGTRLEIK | 0.17 |
| 75110_08K12A (antibody, V domains shown, Tested as antibody purified from AlivaMab Mouse Kappa hybridoma (human V regions, kappa light chain, mouse Fc captured by anti-mouse Fc sensors)) VH: EVQLVESGGGLVQPGGSLRLSCAASGFTFSSYDMHWVRQATGKGLEWVSTIGTAGDTYYPGSVKGRFTISRENAENSLYLQMNSLRAGDTALYYCARGDYYYYGMDVWGQGTTVTVSS VL: EIVLTQSPGTLSLSPGERATLSCRASQSVSSTYLAWYQQKPGQAPRLLIYGASNRATGIPDRFSGSGSGTDFTLTISRLEPEDFAVYYCQQFGTSPFTFGPGTKVDIK | 0.05 |
